These entries and their values trace back to patent US11319341B2.

Test Name: Water solubility of freeze-dried compounds in water (observation and HPLC)
Residues, ends and D or L forms follow the SMILES beside them. *: point of attachment. Doxorubicin(3'-N) = COc1cccc2c1C(=O)c1c(O)c3c(c(O)c1C2=O)C[C@@](O)(C(=O)CO)C[C@@H]3O[C@H]1C[C@H](N*)[C@H](O)[C@H](C)O1; Hexanoyl(6-maleimido) = O=C1C=CC(=O)N1CCCCCC(=O)*; Butanoyl(4-maleimido) = O=C1C=CC(=O)N1CCCC(=O)*; PEG2 = NCCOCCOCCC(=O)O
Assay Metric: solubility

Compound	solubility
COc1cccc2c1C(=O)c1c(O)c3c(c(O)c1C2=O)C[C@@](O)(C(=O)CO)C[C@@H]3O[C@H]1C[C@H](NC(=O)[C@H](CC(C)C)NC(=O)[C@H](CC(N)=O)NC(=O)[C@H](C)NC(=O)[C@H](C)NC(=O)[C@H](CC(N)=O)NC(=O)CCCCCN2C(=O)C=CC2=O)[C@H](O)[C@H](C)O1 [QHL-133] ({Hexanoyl(6-maleimido)}-NAANL-{Doxorubicin(3'-N)})	> 2000 µg/mL

Notebook: COc1cccc2c1C(=O)c1c(O)c3c(c(O)c1C2=O)C[C@@](O)(C(=O)CO)C[C@@H]3O[C@H]1C[C@H](NC(=O)[C@H](CC(C)C)NC(=O)[C@H](CC(N)=O)NC(=O)[C@H](C)NC(=O)[C@H](C)NC(=O)[C@H](CCC(=O)O)NC(=O)CCOCCOCCNC(=O)CCCN2C(=O)C=CC2=O)[C@H](O)[C@H](C)O1 [QHL-063] ({Butanoyl(4-maleimido)-PEG2}-EAANL-{Doxorubicin(3'-N)}) , solubility read as > 15000 µg/mL
